molecular target: human dopamine D3 receptors (Homo sapiens, UniProt P35462); construct: expressed in transfected cells; host or cells: CHO; test: Agonist/antagonist assay, [35S]GTPgammaS binding, human dopamine D3 receptors; type: biochemical
Sequence (P35462 whole entry): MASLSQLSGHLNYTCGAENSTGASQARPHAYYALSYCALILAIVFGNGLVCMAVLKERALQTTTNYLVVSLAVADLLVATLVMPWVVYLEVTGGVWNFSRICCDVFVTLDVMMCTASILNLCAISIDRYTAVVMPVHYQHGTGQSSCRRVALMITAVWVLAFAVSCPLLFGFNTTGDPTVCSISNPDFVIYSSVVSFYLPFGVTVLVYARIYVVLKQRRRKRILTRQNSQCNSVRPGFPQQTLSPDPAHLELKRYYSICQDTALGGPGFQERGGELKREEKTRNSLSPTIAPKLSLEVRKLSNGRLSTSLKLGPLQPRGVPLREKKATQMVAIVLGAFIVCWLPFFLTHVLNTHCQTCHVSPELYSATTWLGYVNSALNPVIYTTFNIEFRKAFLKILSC
pEC50: −log10 of the molar value.

{"columns": ["COMPOUND", "pEC50"],
 "data": [
  ["Cl.Cl.Fc1ccc(-c2cncc(CNC[C@H]3CCc4ccccc4O3)c2)cc1 [Sarizotan, dihydrochloride]", "< 6.30"]
]}

---

Reported Ki, human dopamine D2L receptors (Homo sapiens, UniProt P14416).

{"columns": ["COMPOUND", "Ki (nM)"],
 "data": [
  ["Cl.Cl.Fc1ccc(-c2cncc(CNC[C@H]3CCc4ccccc4O3)c2)cc1 [Sarizotan, dihydrochloride]", 3.29],
  ["Cl.Cl.O=c1[nH]c2cccc(C3CCCN(Cc4cncc(-c5ccc(F)cc5)c4)C3)c2o1 (stereo not drawn) [dihydrochloride]", 5.42],
  ["O=C1c2ccccc2OC=C(Cl)N1CCCCN1CC=C(c2ccccn2)CC1", 161]
]}
